Known pEC50 of a selection of compounds
Target: human M1 (Homo sapiens, UniProt P11229)
Construct: expressed in transfected cells; host or cells: CHO cells
Sequence (P11229 whole entry): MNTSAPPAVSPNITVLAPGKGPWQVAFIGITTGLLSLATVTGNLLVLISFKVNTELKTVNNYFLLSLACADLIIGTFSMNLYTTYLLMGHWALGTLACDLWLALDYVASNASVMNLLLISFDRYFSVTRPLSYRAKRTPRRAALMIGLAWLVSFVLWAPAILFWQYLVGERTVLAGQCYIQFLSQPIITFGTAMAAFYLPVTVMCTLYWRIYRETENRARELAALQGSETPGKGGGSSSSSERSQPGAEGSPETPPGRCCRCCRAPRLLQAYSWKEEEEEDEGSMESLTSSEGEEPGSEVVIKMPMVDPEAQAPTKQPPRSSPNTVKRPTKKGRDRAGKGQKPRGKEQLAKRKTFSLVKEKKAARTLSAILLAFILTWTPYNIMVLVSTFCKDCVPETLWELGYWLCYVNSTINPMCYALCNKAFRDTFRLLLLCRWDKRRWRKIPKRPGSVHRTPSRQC
Experiment: M1 PAM assay (FLIPR intracellular calcium), human M1
Assay type: cell-based
Conditions: CHO human M1 cells, FLIPR Ca2+, with EC20 of acetylcholine; first value of the cell; read-out: hM1 EC50
Protocol: The assay study the effect of several concentrations of test compounds on basal or acetylcholine-stimulated Ca^2+ levels using FLIPR. CHO human M1 are plated the day before the experiments at 2×10^5 cells/ml in PDL BioCoat 96 well black/clear plate (Becton 35 4640). […] A signal test to check background fluorescence and basal fluorescence signal is performed. […]
Field pEC50 (float): negative decimal logarithm of the concentration in molar.

Cn1cc(-c2ccc(Cn3cc(C(=O)N[C@H]4COCC[C@@H]4O)c4c(F)cccc43)c(F)c2)cn1
7.75
Cn1cc(-c2ccc(Cn3cc(C(=O)NC4CC(F)(F)C4)c4c(F)cccc43)cc2)cn1
6.44

Query: Output measured pEC50 for this item: "CNC(=O)c1ccc(Cn2cc(C(=O)NC3CCS(=O)(=O)CC3)c3c(F)cccc32)cc1"
Reply: 6.78

Query: Output measured pEC50 for this item: Cn1cc(-c2ccc(Cn3cc(C(=O)N[C@H]4CCCC[C@@]4(C)O)c4c(F)cccc43)c(F)c2)cn1 (racemic)
Reply: 7.83

Query: Output measured pEC50 for this item: "Cc1nc(-c2ccc(Cn3cc(C(=O)N[C@H]4CCOC[C@@H]4O)c4c(F)cccc43)cc2)no1"
Reply: 6.74

Query: Output measured pEC50 for this item: Cn1cc(-c2ccc(Cn3cc(C(=O)NCC4CCO4)c4c(F)cccc43)cc2)cn1 (stereo not shown)
Reply: 6.92

Query: Output measured pEC50 for this item: "O=C(N[C@H]1CCCC[C@@H]1O)c1cn(CC2CCN(c3ccncn3)CC2)c2cccc(F)c12"
Reply: 6.39

Query: Output measured pEC50 for this item: "COc1ccc(F)c2c(C(=O)N[C@H]3CCCC[C@@H]3O)cn(Cc3ccc(-c4cnn(C)c4)cc3F)c12"
Reply: 6.36

Query: Output measured pEC50 for this item: "CNC(=O)c1ccc(Cn2cc(C(=O)N[C@H]3CCCC[C@@H]3O)c3c(F)cccc32)cc1F"
Reply: 7.84

Query: Output measured pEC50 for this item: "Cn1cc(-c2ccc(Cn3cc(C(=O)NC4CCOCC4)c4c(F)ccc(F)c43)c(F)c2)cn1"
Reply: 7.55
